- assay_system: Proteinase-activated receptor 1 (Homo sapiens)
- Sequence (whole entry): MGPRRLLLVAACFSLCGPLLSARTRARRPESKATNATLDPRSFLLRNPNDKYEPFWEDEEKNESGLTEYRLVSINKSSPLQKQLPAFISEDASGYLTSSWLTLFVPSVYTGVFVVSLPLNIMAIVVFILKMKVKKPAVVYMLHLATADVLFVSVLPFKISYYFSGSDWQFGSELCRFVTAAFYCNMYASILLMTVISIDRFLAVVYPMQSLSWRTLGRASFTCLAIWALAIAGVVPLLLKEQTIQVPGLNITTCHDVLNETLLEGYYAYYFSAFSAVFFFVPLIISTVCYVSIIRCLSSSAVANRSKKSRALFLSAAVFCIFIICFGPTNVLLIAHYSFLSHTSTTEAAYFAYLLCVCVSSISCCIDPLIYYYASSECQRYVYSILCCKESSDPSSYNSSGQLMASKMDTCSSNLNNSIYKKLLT
- experiment_summary: Activation of PAR-1 in human platelet-rich plasma assessed as induction of platelet aggregation by turbidimetric method relative to S/Phe/FLLRNP
- Type: cell-based
- experimental_context: filed as activator
Numbered stars: 1 amine (or outer) side, 2 acyl side, 3 side chain; on linkers, the order of the positions; unused ones are H or OH. Square brackets hold non-standard residues; d marks the D form. Peptide text beside a SMILES is read from it. X4 = O=C([C@H](Cc1ccc(F)c(F)c1F)N[*:1])[*:2]; X5 = O=C([C@H](Cc1cc(F)c(F)cc1F)N[*:1])[*:2]; X7 = O=C([C@H](Cc1c(F)cc(F)cc1F)N[*:1])[*:2]
measured_attribute: Activity (%)

Entry CC(C)C[C@H](NC(=O)[C@H](Cc1c(F)cc(F)cc1F)NC(=O)[C@@H](N)CO)C(=O)N[C@@H](CC(C)C)C(=O)N[C@@H](CC(N)=O)C(=O)N1CCC[C@H]1C(N)=O (H-S[X7]LLNP-NH2) — recorded Activity = 49

I. CC(C)C[C@H](NC(=O)[C@H](Cc1ccc(F)c(F)c1F)NC(=O)[C@@H](N)CO)C(=O)N[C@@H](CC(C)C)C(=O)N[C@@H](CC(N)=O)C(=O)N1CCC[C@H]1C(N)=O (H-S[X4]LLNP-NH2)
II. CC(C)C[C@H](NC(=O)[C@H](Cc1cc(F)c(F)cc1F)NC(=O)[C@@H](N)CO)C(=O)N[C@@H](CC(C)C)C(=O)N[C@@H](CC(N)=O)C(=O)N1CCC[C@H]1C(N)=O (H-S[X5]LLNP-NH2)
Between I and II , whose measured Activity reads higher? Refer to your chosen entry by its label in the reply. II
